# Test system: HOP-92 NSCLC
# assay-info: NCI-60 one-dose screen, 48 h (100 = growth as untreated, 0 = no growth, -100 = all killed)
# assay-setup: 10 µM unless noted
About 83,000 compounds went through this panel and 20% of them were active in at least one assay; those are over-represented in the sample as a whole.
measured-attribute: growth (%)
Expressed in %, but write only the number.

Previously resolved entries follow.
COC(=O)C1=Nc2ccc(F)cc2/C1=C\c1sc(Nc2ccc(O)cc2)nc1O | 42.7
CCCCC(=O)Nc1ncc(Cc2ccccc2Cl)s1 | 51.3
COc1ccc(/C(C)=C(\c2ccc(OCCN3CCCCCC3)cc2)c2ccc(OC(=O)c3ccccc3)cc2)cc1 | 54.4
Oc1c(Cl)cc(Cl)c2ccc(Cn3cc(-c4cccc(C(F)(F)F)c4)nn3)nc12 | 55.8
COc1cc2c(/C=C3\C(=O)Nc4ccccc43)c(C(=O)O)[nH]c2cc1C | 63.8
O=C(CCCCCCN1CC(=O)N2[C@@H](c3ccc(Cl)cc3)c3[nH]c4ccccc4c3C[C@H]2C1=O)NO | 15.3

Kindly state the measured growth obtained for CN(C)Cc1ccc(C(=O)Nc2ccc3ncnc(Nc4ccc(Oc5cccc(F)c5)c(Cl)c4)c3c2)cc1 with HOP-92 NSCLC.
36.2

Kindly state the measured growth obtained for COC(=O)c1ccc2c(c1)c1c(C)c3ccncc3c(C)c1n2C with HOP-92 NSCLC.
18.7

Kindly state the measured growth obtained for COc1cc2c3c(c1O)-c1ccccc1[C@@H]1OC(=O)N(CC2)[C@H]31 with HOP-92 NSCLC.
80.8

Kindly state the measured growth obtained for COc1ccc2c(c1)c(-c1nonc1-c1c[nH]c3ccc(Br)cc13)cn2C with HOP-92 NSCLC.
75.6
